Numbers sourced from paper doi:10.1101/662718v1.

Target: ecATCase (Escherichia coli, UniProt P0A786)
Sequence (P0A786 2-311): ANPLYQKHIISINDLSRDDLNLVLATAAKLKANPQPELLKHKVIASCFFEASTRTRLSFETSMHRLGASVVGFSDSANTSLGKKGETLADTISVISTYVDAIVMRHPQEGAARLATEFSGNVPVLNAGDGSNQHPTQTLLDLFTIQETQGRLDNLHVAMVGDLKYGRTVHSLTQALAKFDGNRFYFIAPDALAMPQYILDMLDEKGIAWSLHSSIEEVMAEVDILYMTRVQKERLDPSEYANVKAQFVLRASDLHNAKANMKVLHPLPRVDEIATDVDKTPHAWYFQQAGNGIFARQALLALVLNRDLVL
Assay: colorimetric ATCase activity assay, dose-response fit
Type: biochemical
reportedMetric: pIC50
Formally, pIC50 is defined as -log10 of the concentration c, with c in mol/L.

compound: O=c1[nH]c2ccc(Nc3nc4nonc4nc3N/N=C/c3ccccc3OCc3ccc(Cl)cc3Cl)cc2[nH]1
pIC50: 5.74

In: What value of pIC50 has been recorded for this entry: CC(C(=O)Oc1ccc(C2C3=C(Nc4[nH]c(=O)n(C)c(=O)c42)c2ccccc2C3=O)cc1)N1C(=O)c2ccccc2C1=O (centres unmarked)
Out: 5.30
